Hello, the source for this data is BindingDB's records for doi:10.1016/j.bmcl.2009.07.031, in case you need it.

The following compounds are listed with their measured pIC50 values.
# Assay Protocol: Inhibition of HIV1 reverse transcriptase Y181C mutant by SPA assay
When answering, recall that pIC50 equals minus log10 of the concentration in mol/L, and write that number alone.

// solved cases for pIC50 follow
{"Molecular String": "Cc1ccc2c(c1)CCCN2C(=O)SCC(=O)Nc1ccc(S(N)(=O)=O)cc1Cl", "Property Name": "pIC50", "Test Result": 5.89}
{"Molecular String": "NS(=O)(=O)c1ccc(NC(=O)CSC(=O)N2CCCc3cccc(Cl)c32)c(Cl)c1", "Property Name": "pIC50", "Test Result": 7.51}
{"Molecular String": "Cc1cc(C)c(N(C)C(=O)SCC(=O)Nc2ccc(S(N)(=O)=O)cc2Cl)c(C)c1", "Property Name": "pIC50", "Test Result": 7.10}

Task item: Which pIC50 is reported for this compound? NCCCNC(=O)c1ccc(NC(=O)CSC(=O)N2CCCc3cc(Cl)cc(Cl)c32)c(Cl)c1
Reply: 8.15

Task item: What pIC50 value was documented for this compound, NS(=O)(=O)c1ccc(NC(=O)COC(=O)N2CCCc3cc(Cl)cc(Cl)c32)c(Cl)c1 ?
Reply: 6.94

Task item: I would be grateful if you could share the reported pIC50 for Cc1cccc2c1N(C(=O)SCC(=O)Nc1ccc(S(N)(=O)=O)cc1Cl)CCC2 .
Reply: 7.21

Task item: Fill in: pIC50 of N#Cc1ccc(NC(=O)CSC(=O)N2CCCc3cc(Cl)cc(Cl)c32)c(Cl)c1 is ___
Reply: 7.02

Task item: Given NS(=O)(=O)c1ccc(NC(=O)CSC(=O)N2CCCc3cc(Cl)cc(Cl)c32)c(Cl)c1 , state its recorded pIC50.
Reply: 8.40

---

Below, each entry is listed alongside its reported IC50.
# Assay Protocol: Inhibition of HIV1 reverse transcriptase by SPA assay
Write down the numeric answer in nM and omit the unit.

{"Molecular String": "NS(=O)(=O)c1ccc(NC(=O)COC(=O)N2CCCc3cc(Cl)cc(Cl)c32)c(Cl)c1", "Unit": "nM", "IC50": 19}
{"Molecular String": "Cc1cc(C)c(N(C)C(=O)SCC(=O)Nc2ccc(S(N)(=O)=O)cc2Cl)c(C)c1", "Unit": "nM", "IC50": 8}

Task item: Fill in: IC50 of Cc1cccc2c1N(C(=O)SCC(=O)Nc1ccc(S(N)(=O)=O)cc1Cl)CCC2 is ___
Reply: 6

Task item: I would be grateful if you could share the reported IC50 for N#Cc1ccc(NC(=O)CSC(=O)N2CCCc3cc(Cl)cc(Cl)c32)c(Cl)c1 .
Reply: 7

Task item: Fill in: IC50 of NS(=O)(=O)c1ccc(NC(=O)CSC(=O)N2CCCc3cc(Cl)ccc32)c(Cl)c1 is ___
Reply: 8

Task item: # query: IC50 of entry O=C(CSC(=O)N1CCCc2cc(Cl)cc(Cl)c21)Nc1ccccc1Cl
Reply: 4

Task item: Give its IC50 value. Item: NCCCNC(=O)c1ccc(NC(=O)CSC(=O)N2CCCc3cc(Cl)cc(Cl)c32)c(Cl)c1
Reply: 2

Task item: Suppose we examine the compound NS(=O)(=O)c1ccc(NC(=O)CSC(=O)N2CCCc3cccc(Cl)c32)c(Cl)c1 ; what IC50 value has been reported?
Reply: 2
